Source: patent US5066674A

system: Pancreatic cholesterol esterase (CEase); assay: CEase-catalyzed hydrolysis of p-nitrophenylbutyrate (PNPB), irreversible inhibition timecourse; type: biochemical; conditions: in presence of 10^-5 M inhibitor; calculated t1/2 = ln(2)/(ki[I])
metric: t1/2, half-life of irreversible inhibition (min)
Kindly provide the numeric value in min only, without the unit symbol.

State the measured t1/2, half-life of irreversible inhibition (Pancreatic cholesterol esterase (CEase)) of CCCCCNC(=O)Oc1ccc(NC(C)=O)cc1 [p-Acetamidophenyl n-Pentyl Carbamate]
11.6

Lab note: record t1/2, half-life of irreversible inhibition of CCCCNC(=O)Oc1ccc(NC(C)=O)cc1 [p-Acetamidophenyl n-Butyl Carbamate] tested on Pancreatic cholesterol esterase (CEase).
29

Recall the reported t1/2, half-life of irreversible inhibition of CCCCCCNC(=O)Oc1ccc(NC(C)=O)cc1 [p-Acetamidophenyl n-Hexyl Carbamate] on Pancreatic cholesterol esterase (CEase) and write it down.
2.3

Lab note: Pancreatic cholesterol esterase (CEase) assay, enter t1/2, half-life of irreversible inhibition for CCCCCCCCNC(=O)Oc1ccc(NC(C)=O)cc1 [p-Acetamidophenyl n-Octyl Carbamate] here
11.6

Consider the compound CCCCCCCCNC(=O)Oc1ccc2ccccc2c1 [2-Naphthyl n-Octyl Carbamate] tested on Pancreatic cholesterol esterase (CEase); state its t1/2, half-life of irreversible inhibition.
0.86

---

target: Pancreatic cholesterol esterase (CEase); test: CEase-catalyzed hydrolysis of p-nitrophenylbutyrate (PNPB), irreversible inhibition timecourse; assay type: biochemical; details: PNPB substrate, 25.0 °C, pH 7.3, 0.1M sodium phosphate, 0.1N NaCl, 1 mM Triton X100
Assignment: determine reported Second-order inhibition rate constant ki/Ki for the given molecules.

Identify measured Second-order inhibition rate constant ki/Ki corresponding to CCCCCCCCNC(=O)Oc1ccc2ccccc2c1 [2-Naphthyl n-Octyl Carbamate]
1350 M⁻¹ s⁻¹

Identify Second-order inhibition rate constant ki/Ki associated with the molecule CCCCCCCCNC(=O)Oc1ccc(NC(C)=O)cc1 [p-Acetamidophenyl n-Octyl Carbamate]
100 M⁻¹ s⁻¹

Provide measured Second-order inhibition rate constant ki/Ki value, entry: CCCCCCNC(=O)Oc1ccc(NC(C)=O)cc1 [p-Acetamidophenyl n-Hexyl Carbamate]
493 M⁻¹ s⁻¹

Hello, please tell me recorded Second-order inhibition rate constant ki/Ki for this one: CCCCCNC(=O)Oc1ccc(NC(C)=O)cc1 [p-Acetamidophenyl n-Pentyl Carbamate]
100 M⁻¹ s⁻¹

Identify measured Second-order inhibition rate constant ki/Ki associated with CCCCNC(=O)Oc1ccc(NC(C)=O)cc1 [p-Acetamidophenyl n-Butyl Carbamate]
40 M⁻¹ s⁻¹
